test system: H9c2 cardiomyocytes, 2-deoxyglucose stress, ATP luminescence, 2 h; experiment: H9c2 cell survival under 2-deoxyglucose stress – uHTS hits, dose response (AID 588780)
Calls of active or inactive are those of the source.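 Rule for the calls: active = compounds whose fitted half-maximal concentration in the cell-protection dose series is at or below a set limit; inactive = the rest.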
Entries annotated with measured IC50

Recorded results for 3 compounds are shown here.
COc1ccc(-c2cc(C(=O)Nc3ccccc3N3CCOCC3)c3ccccc3n2)cc1OC ... > 79 µM (inactive)
O=c1c2ccccc2nc(/C=C/c2ccc(O)cc2)n1-c1ccc(O)cc1 ... > 79 µM (inactive)
O=C(NC1CCCCC1)C(c1ccc2ncccc2c1)N(Cc1ccccc1)C(=O)c1ccc2c(c1)OCCO2 (configuration not stated) ... 32 µM (inactive)

Fill in: IC50 of O=C(Nc1nnc(C2CC2)s1)c1cc(-c2ccccc2)nn1-c1ccccc1 is ___ > 79 µM (inactive)

Item: COc1ccc(CC(=O)N/N=C(\C)c2ccccn2)cc1 26.7 µM

* * *

test system: H9c2 cardiomyocytes, 2-deoxyglucose stress, ATP luminescence, 2 h; test: H9c2 cell survival under 2-deoxyglucose stress – uHTS hits, dose response (AID 588780)
The source made the active and inactive calls.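 The calls were made as follows: active = compounds whose fitted half-maximal concentration in the cell-protection dose series is at or below a set limit; inactive = the rest.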
Pick from active, inactive when you respond.

Below are worked cases with known answers.
N#CCCn1c(SCC(=O)c2c[nH]c3ccccc23)nc2ccccc21 ... inactive
Cc1[nH]c2ccccc2c1/C=N/NC(=O)c1cc(-c2cccs2)[nH]n1 ... inactive

Please let me know the test result on file for COc1ccccc1C(=O)NC(=O)COC(=O)Cn1[nH]c(=O)c2ccccc2c1=O . inactive

// query: Nc1ccc2c(c1)[nH]c(=O)c1ccccc12 inactive

What do you get for COC(=O)c1[nH]c2cc(OC)c(OC)cc2c1/C=N/Nc1ccccc1 ? inactive

Do the same for C=C1C(C)C2C(Cc3ccccc3)NC(=O)C23OC(=O)/C=C/C(O)CCCC(C)C/C=C/C3C1O (stereo unspecified) please inactive

How about COc1cc2ccccc2cc1C(=O)NNC(=O)c1ccccc1O ? inactive

Another molecule: COc1c(C)cc(Br)cc1C(=O)Nc1cccc(-c2nc3ncccc3o2)c1 inactive

Okay, and Cc1cccc(NC(=O)c2nc[nH]c2C(=O)NCCCNC(=O)c2[nH]cnc2C(=O)Nc2cccc(C)c2)c1 ? inactive

Entry to check: C[C@@H]1ON(C)[C@H]2C[C@H]3c4[nH]c5ccc(-c6ccc7c(c6)OCO7)cc5c4CCN3C[C@@H]12 inactive

Also CC(OC(=O)Cn1[nH]c(=O)c2ccccc2c1=O)C(=O)Nc1cccc(Cl)c1 (stereo unspecified) , if possible. inactive

Check CNC(=O)c1ccc(-c2sc3nc(N4CCOCC4)c4c(c3c2N)CCCC4)o1 too. inactive

Can you handle CCOc1ccc(/C=C/C(=O)c2cc(Br)ccc(=O)c2O)cc1 next? inactive

Also Cc1cccc(C(=O)N/N=C2\CS(=O)(=O)N(C)c3ccsc32)c1 , if possible. active

Query COc1cc(OC)cc(C(=O)Nc2ccc(-c3nc4ccccc4o3)cc2)c1 next inactive

* * *

test system: H9c2 cardiomyocytes, 2-deoxyglucose stress, ATP luminescence, 2 h; assay: H9c2 cell survival under 2-deoxyglucose stress – uHTS hits, dose response (AID 588780)
Calls of active or inactive are those of the source.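 The calls were made as follows: active = compounds whose fitted half-maximal concentration in the cell-protection dose series is at or below a set limit; inactive = the rest.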
Hi there, use one of these labels in your reply, thanks! active, inactive

Worked examples follow.
O=C(NCC1CCCO1)C(c1ccc(F)cc1)N(C(=O)Cn1nnc(-c2ccc(F)cc2)n1)c1cccc(O)c1 (stereo unspecified) ... active
Cc1ccc(N=Cc2cc(Cl)cc(Cl)c2O)nc1 ... inactive
COc1cc(C(=O)NNC(=O)c2ccc3ccccc3n2)cc(OC)c1OC ... inactive
CCCn1nc(C(=O)OCC(=O)c2c(N)n(C)c(=O)n(C)c2=O)c2ccccc2c1=O ... inactive
O=C(CN1C(=O)C2CC=CCC2C1=O)Nc1nc(-c2ccc(F)c(F)c2)cs1 (stereo unspecified) ... inactive
Cc1ccc(-c2nn3c(-c4ccco4)nnc3c3ccccc23)cc1S(=O)(=O)NCC1CCCO1 (stereo unspecified) ... active
Cc1c(Cl)cccc1NC(=O)CNC(=O)Cc1n[nH]c(=O)c2ccccc12 ... inactive
CC1Cc2ccccc2N1C(=O)c1cc2c(=O)n3ccccc3nc2n1C (stereo unspecified) ... inactive
COc1ccc2[nH]c(=O)c(CN(Cc3nnnn3Cc3ccccc3)CC3CCCO3)cc2c1 (stereo unspecified) ... inactive
Cc1ccc(N2C(=O)CS/C2=C(\C(Cl)=C(Cl)Cl)[N+](=O)[O-])cc1 ... inactive

Identify the outcome logged in this assay for the compound shown: COc1ccccc1OCC(=O)Nc1sc2c(c1C(=O)NCC1CCCO1)CCC2 (stereo unspecified) inactive

Okay, and COc1ccc(C(C)=O)cc1COC(=O)Cc1n[nH]c(=O)c2ccccc12 ? inactive

Next up: CCOC(=O)C1=c2s/c(=C\c3ccncc3)c(=O)n2C(N)=C(C(=O)OC)C1c1ccncc1 (stereo unspecified) inactive

Okay, and O=c1[nH]c(NCc2ccccc2)nc2c1CCCC2 ? inactive

Same question, Cn1nc(C(=O)Nc2nc(-c3ccccn3)cs2)c2ccccc2c1=O this time inactive

* * *

test system: H9c2 cardiomyocytes, 2-deoxyglucose stress, ATP luminescence, 2 h; test: H9c2 cell survival under 2-deoxyglucose stress – uHTS hits, dose response (AID 588780)
The source made the active and inactive calls.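 The calls were made as follows: active = compounds whose fitted half-maximal concentration in the cell-protection dose series is at or below a set limit; inactive = the rest.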
Please reply with one of these outcomes: y = active, n = inactive

Answered cases to consult:
O=c1[nH]c2c(c3c1CCCC3)CCCC2 ... n
Cc1cc(NC(=O)C2CCCCC2)nc2c1c(=O)oc1ccccc12 ... y
COc1ccc(OC)c(N(CC(=O)Nc2cccnc2)S(=O)(=O)c2ccc(OC)c(OC)c2)c1 ... n
CCCCOc1ccc(C(=O)NCC(=O)N(C)Cc2nc3ccccc3c(=O)[nH]2)cc1 ... n
Cc1ccc(-c2csc(NC(=O)Cn3[nH]c(=O)c4ccccc4c3=O)n2)cc1 ... y

Please let me know the test result on file for Cc1cc(Nc2ccccc2C(=O)O)nc2nc3ccccc3c(=O)n12 . n

Next up: O=C1c2ccccc2NC(c2cn[nH]c2-c2ccccc2)N1O (stereo not given) n

What do you get for COc1cc(C)cc2oc(=O)c(CC(=O)N3CCN(C(=O)C4COc5ccccc5O4)CC3)c(C)c12 (stereo not given) ? n

Another compound to look at: COC(=O)c1cc2c(-c3ccccc3)cc3ccccn3c-2c1C(=O)OC y

Next up: CCCC(=O)Nc1cc(C)c2c(=O)oc3ccccc3c2n1 n

* * *

system: H9c2 cardiomyocytes, 2-deoxyglucose stress, ATP luminescence, 2 h; experiment: H9c2 cell survival under 2-deoxyglucose stress – uHTS hits, dose response (AID 588780)
Calls of active or inactive are those of the source.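 Rule for the calls: active = compounds whose fitted half-maximal concentration in the cell-protection dose series is at or below a set limit; inactive = the rest.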
Would you mind answering with one of these outcomes? Yes for active, No for inactive

COC(=O)c1ccc(N)c(N=CC2=C(O)CC(C)(C)CC2=O)c1 ... Yes

Could you kindly confirm the outcome this assay logged for CN(C)S(=O)(=O)c1ccc2[nH]cc(/C=C/c3nc4ccccc4c(=O)n3-c3ccccc3)c2c1 ? No

What would you report for O=C(Nc1nc(-c2ccccn2)cs1)c1cccc(S(=O)(=O)N2CCOCC2)c1 ? No

Also need N#C/C(=C1\CCCN1)c1nc2ccccc2c(=O)[nH]1 , thanks. No

What do you get for COc1ccc(/C=C(\C#N)C(=O)c2c(C)[nH]c3ccccc23)cc1OC ? No

Now the same for O=C(C(=O)N(Cc1ccccc1)Cc1ccccc1)c1c(-c2ccccc2)[nH]c2ccccc12 No

One more compound: Cc1nnc(SCC(=O)N/N=C/c2cn(-c3ccccc3)nc2-c2ccccc2)n1-c1ccccc1 Yes

Here is the next compound: CCOC(=O)Cc1csc(NC(=O)NC2(C(F)(F)F)Oc3ccccc3O2)n1 No

Repeat for the following compound: COC(=O)c1cc(C(=O)OCC(=O)N2c3ccccc3NC(=O)C2(C)C)cc([N+](=O)[O-])c1 No

Field entry: Cc1cc(Cl)ccc1OCCCC(=O)NNC(=O)c1ccccc1O No

* * *

system: H9c2 cardiomyocytes, 2-deoxyglucose stress, ATP luminescence, 2 h; assay: H9c2 cell survival under 2-deoxyglucose stress – uHTS hits, dose response (AID 588780)
Active and inactive are the calls of the source.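 How the source made its calls: active means compounds whose fitted half-maximal concentration in the cell-protection dose series is at or below a set limit; inactive means the rest.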
Would you mind answering with one of these outcomes? yes (1) = active, no (0) = inactive

Please review the following examples before continuing.
COc1cc(C(=O)Nc2cccc(-c3nnc(-c4ccco4)o3)c2)ccc1OC(C)=O ... no (0)
Cc1cc(C)nc(SCc2ccc(C(=O)N/N=C/c3ccccn3)cc2)n1 ... no (0)
Cc1ccc(-c2n[nH]c(=O)c3ccccc23)cc1S(=O)(=O)NCCN1CCOCC1 ... no (0)

Please state the recorded outcome for this molecule: O=C(COc1ccc([N+](=O)[O-])cc1)Nc1nc(-c2ccccn2)cs1 no (0)

Let us now turn to CCOC(=O)c1ccc(-c2ccc3ncnc(NCc4csc(C)n4)c3c2)o1 no (0)

* * *

tested on: H9c2 cardiomyocytes, 2-deoxyglucose stress, ATP luminescence, 2 h; experiment: H9c2 cell survival under 2-deoxyglucose stress – uHTS hits, dose response (AID 588780)
Activity calls are given as the source filed them.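 Rule for the calls: active = compounds whose fitted half-maximal concentration in the cell-protection dose series is at or below a set limit; inactive = the rest.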
Entry note: the call must match one of active, inactive

COc1ccc(-c2oc(=O)c3cc(OC)c(OC)cc3c2C#CCCO)cc1 ... inactive

Given COc1ccc(/C=N/NC(=O)c2cc(-c3ccc4c(c3)OCO4)n[nH]2)cc1OC , state the outcome it received in this test. inactive

And CC(C)C(=O)N1CCN(c2ccc(NC(=O)COc3ccccc3[N+](=O)[O-])cc2)CC1 ? inactive

Continue with O=c1[nH]nc(CNc2ccc(C(F)(F)F)cc2)c2ccccc12 active

Subsequent entry: O=c1oc2ccc3ccccc3c2cc1-c1nnc(-c2ccccc2)o1 active

Data origin: PubChem BioAssay AID588780
